# System: TRPC4 beta (transient receptor potential cation channel C4), mouse
# Experiment summary: activators of mouse TRPC4 channel, confirmation, cell-based, Fluo4 calcium, HEK293 TRPC4beta/mu-opioid, duplicates, 10 µM (AID 2426);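 note: percent rise of integrated ratio over buffer wells lacking compound which define 0%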
# Study conditions: Fluo4 calcium fluorescence, at 10 µM; active compounds read high
I would appreciate it if you labelled entries True when activation is 200% or higher, otherwise False.

Does activation meet or surpass 200% for CN(C)C(CNC(=O)Cc1cccc(C(F)(F)F)c1)c1ccccc1 (stereo unspecified) ?
False

---

# Target of assay: Potassium voltage-gated channel subfamily KQT member 2 (Rattus norvegicus)
# Experiment summary: rat KCNQ2 channel potentiation, selectivity assay for KCNQ1 potentiator project, KCNQ2-CHO-K1 cells (AID 493009);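 note: assay conditions were tuned for KCNQ1 rather than KCNQ2 modulators; signal is max minus min fluorescence divided by baseline after thallium stimulus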
# Study conditions: FluxOR thallium flux fluorescence, at 10 µM, scaled: buffer 0, activator control 100
The source made the active and inactive calls.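 How the source made its calls: active means mean duplicate potentiation above the buffer control mean plus 5 SD of buffer wells; inactive means the rest.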
Valid outcomes are listed here; reply with one: True for active, False for inactive

Sample answers from the record:
Compound	Target of assay	Answer label
CC(=O)Oc1c(-c2ccc(Br)o2)oc2ccccc2c1=O	Potassium voltage-gated channel subfamily KQT member 2 (Rattus norvegicus)	True
CCCc1cc(=O)n2[nH]c(C)c(-c3ccc(Cl)cc3)c2n1	Potassium voltage-gated channel subfamily KQT member 2 (Rattus norvegicus)	True
Cc1cccc(-c2nnc(NC(=O)c3ccc(Cl)cc3)o2)c1	Potassium voltage-gated channel subfamily KQT member 2 (Rattus norvegicus)	True
O=C(N/N=C/c1ccccn1)c1cc(Br)ccc1O	Potassium voltage-gated channel subfamily KQT member 2 (Rattus norvegicus)	True
Cc1ccc(-n2c(=S)[nH]c3c(oc4ccccc43)c2=O)cc1C	Potassium voltage-gated channel subfamily KQT member 2 (Rattus norvegicus)	True

Assay result, entry O=C(NC(=S)N(CC1CCC1)CC1CCCO1)c1cccc([N+](=O)[O-])c1 (stereo unspecified) — outcome?
True

Assay result, entry CCc1ccc(NC(=O)C(=O)NNC(=O)c2ccc(OC)cc2)cc1 — outcome?
True

Assay result, entry Cc1ccc(S(=O)(=O)Nc2cccc3ncccc23)s1 — outcome?
True

Assay result, entry Cc1ccc(S(=O)(=O)NN2C(=O)/C(=C/c3cccs3)SC2=S)cc1 — outcome?
True

Assay result, entry CCc1ccc2[nH]c(O)c(N=Nc3nc(-c4ccccc4)cs3)c2c1 — outcome?
True

Assay result, entry CCCCn1c(SCC(N)=O)nc2ccc(N3CCOCC3)cc2c1=O — outcome?
False

---

# Target of assay: Potassium voltage-gated channel subfamily KQT member 2 (Rattus norvegicus) (UniProt O88943)
# Sequence (O88943 whole entry, looked up): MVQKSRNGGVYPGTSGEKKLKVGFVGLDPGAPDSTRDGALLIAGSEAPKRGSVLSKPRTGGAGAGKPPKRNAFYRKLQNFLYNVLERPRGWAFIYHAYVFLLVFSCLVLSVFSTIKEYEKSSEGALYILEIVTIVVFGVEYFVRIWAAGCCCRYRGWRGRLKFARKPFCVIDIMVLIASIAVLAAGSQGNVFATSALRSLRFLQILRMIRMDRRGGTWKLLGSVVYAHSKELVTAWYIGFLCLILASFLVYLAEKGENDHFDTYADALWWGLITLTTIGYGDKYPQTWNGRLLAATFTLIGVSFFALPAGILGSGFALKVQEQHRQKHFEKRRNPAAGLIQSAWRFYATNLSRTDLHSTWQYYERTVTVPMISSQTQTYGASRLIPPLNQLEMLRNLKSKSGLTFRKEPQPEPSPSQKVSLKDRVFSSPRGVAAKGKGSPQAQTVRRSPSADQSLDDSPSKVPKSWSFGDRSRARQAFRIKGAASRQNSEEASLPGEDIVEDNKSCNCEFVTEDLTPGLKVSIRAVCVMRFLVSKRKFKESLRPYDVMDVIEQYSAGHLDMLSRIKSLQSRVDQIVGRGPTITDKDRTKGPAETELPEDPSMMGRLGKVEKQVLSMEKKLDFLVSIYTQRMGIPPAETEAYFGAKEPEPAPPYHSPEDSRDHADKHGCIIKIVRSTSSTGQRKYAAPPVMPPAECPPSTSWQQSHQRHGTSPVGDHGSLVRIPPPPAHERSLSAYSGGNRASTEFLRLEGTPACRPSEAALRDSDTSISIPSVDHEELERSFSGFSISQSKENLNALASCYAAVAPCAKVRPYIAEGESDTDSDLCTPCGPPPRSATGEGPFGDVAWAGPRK
# Experiment summary: rat KCNQ2 channel potentiation, selectivity assay for KCNQ1 potentiator project, KCNQ2-CHO-K1 cells (AID 493009);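 note: assay conditions were tuned for KCNQ1 rather than KCNQ2 modulators; signal is max minus min fluorescence divided by baseline after thallium stimulus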
# Study conditions: FluxOR thallium flux fluorescence, at 10 µM, scaled: buffer 0, activator control 100
Calls of active or inactive are those of the source.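 Rule for the calls: active = mean duplicate potentiation above the buffer control mean plus 5 SD of buffer wells; inactive = the rest.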
Valid outcomes are listed here; reply with one: Y = active, N = inactive

Sample answers from the record:
Compound	Answer label
CC1CC(C)CN(Cc2nc(N)nc(Nc3ccc4ccccc4c3)n2)C1 (stereo unspecified)	Y
CCOC(=O)c1sc(N2N=C(C)C(N=Nc3cccc(C)c3)C2=O)nc1C (stereo unspecified)	Y
O=C(Cc1cccs1)N=Nc1c(O)[nH]c2ccc(Br)cc12	N

Assay result, entry CCCc1ccc(OCC(=O)NNC(=S)NC(=O)c2ccco2)cc1 — outcome?
Y

Assay result, entry COc1cccc2sc(N(CCCN(C)C)C(=O)c3ccc(S(=O)(=O)N4CCCc5ccccc54)cc3)nc12 — outcome?
N

Assay result, entry CCOC(=O)C1(CC2CCCCO2)CCN(Cc2cc3ccccc3[nH]2)CC1 (stereo unspecified) — outcome?
N

Assay result, entry C/C(=N/NC(=O)c1cc(C2CC2)[nH]n1)c1cccs1 — outcome?
N

Assay result, entry COc1ccc(-n2c(C)cc(C(=O)CCl)c2C)cc1 — outcome?
N

---

# Target of assay: Short transient receptor potential channel 4 (Mus musculus)
# Experiment summary: inhibitors of mouse TRPC4 channel, confirmation, cell-based, Fluo4, HEK293 TRPC4beta/mu-opioid (AID 2636)
# Study conditions: DAMGO, Fluo4 calcium flux, at 10 µM; active compounds read high
Activity calls are given as the source filed them.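 The calls were made as follows: active = calcium signal cut by more than 3 SD below the full-agonist control yet still positive, in both repeats and the earlier primary screen; inactive = the rest.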
Value type: inhibition

Solved cases below.
Molecule	Target of assay	inhibition
CN(C)/C=C1\C(=O)N(c2ccc([N+](=O)[O-])cc2)N=C1c1ccccc1	Short transient receptor potential channel 4 (Mus musculus)	85% (active)
CCOC(=O)C1(CC2CC2)CCN(Cc2ccc3cccc(F)c3n2)CC1	Short transient receptor potential channel 4 (Mus musculus)	89% (active)
Cc1ccc(S(=O)(=O)Nc2cccc(C(=O)NCC(c3ccccc3)N(C)C)c2)cc1F (stereo unspecified)	Short transient receptor potential channel 4 (Mus musculus)	inactive
CNC[C@H](CC1CCCCC1)NC[C@H](Cc1ccccc1)NCCC12CC3CC(CC(C3)C1)C2	Short transient receptor potential channel 4 (Mus musculus)	inactive
O=C(NCCCN1CCN(CCCNC(=O)c2ccc3c(c2)OCO3)CC1)c1ccc2c(c1)OCO2	Short transient receptor potential channel 4 (Mus musculus)	inactive
Cc1c(C(=O)N(Cc2cccs2)C2CCS(=O)(=O)C2)oc2ccccc12 (stereo unspecified)	Short transient receptor potential channel 4 (Mus musculus)	97% (active)
COc1ccc(Cl)cc1NC(=O)CNCC(c1ccccc1)N(C)C (stereo unspecified)	Short transient receptor potential channel 4 (Mus musculus)	100% (active)
CCn1c(=O)cc(OCC(=O)NCCCN2CC(C)CC(C)C2)c2ccccc21 (stereo unspecified)	Short transient receptor potential channel 4 (Mus musculus)	inactive
CN(C)C(CNc1ncnc2sc3c(c12)CCCC3)c1ccco1 (stereo unspecified)	Short transient receptor potential channel 4 (Mus musculus)	inactive
CN1CCC(CNC(=O)Nc2ccccc2)(c2ccccc2)CC1	Short transient receptor potential channel 4 (Mus musculus)	inactive

Record lookup: for Short transient receptor potential channel 4 (Mus musculus), what inhibition belongs to CN1CCCC(OC(=O)c2cc(Cl)cc(Cl)c2)C1 (stereo unspecified) ?
inactive

Record lookup: for Short transient receptor potential channel 4 (Mus musculus), what inhibition belongs to Cc1ccc(C(=O)NC(=S)NNC(=O)c2ccccc2)cc1 ?
inactive

---

# Target of assay: Potassium voltage-gated channel subfamily KQT member 2 (Rattus norvegicus) (UniProt O88943)
# Experiment summary: rat KCNQ2 channel potentiation, selectivity assay for KCNQ1 potentiator project, KCNQ2-CHO-K1 cells (AID 493009);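 note: assay conditions were tuned for KCNQ1 rather than KCNQ2 modulators; signal is max minus min fluorescence divided by baseline after thallium stimulus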
# Study conditions: FluxOR thallium flux fluorescence, at 10 µM, scaled: buffer 0, activator control 100
Active and inactive are the calls of the source.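 The calls were made as follows: active = mean duplicate potentiation above the buffer control mean plus 5 SD of buffer wells; inactive = the rest.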
Valid outcomes are listed here; reply with one: 1 (active), -1 (inactive)

Molecule	Answer label
CC(C)COn1c(=S)[nH]c2ccccc2c1=O	1
CSc1nc(SCC(=O)O)c2sc3nc(-c4ccccc4)c4c(c3c2n1)CCC4	-1
CCOC(=O)c1sc(NC(=O)c2ccc(OC(C)=O)cc2)nc1C	-1
CN(C)CCCC1(O)c2ccccc2C=Cc2ccccc21	-1
CCOC(=O)N/C(N)=N/c1nc2ccccc2s1	-1

Assay result, entry Cc1ccccc1C(=O)NNC(=O)C(=O)Nc1cccc(Cl)c1C — outcome?
1

Assay result, entry Cc1onc(-c2ccccc2)c1C(=O)NNC(=S)NC(=O)c1ccc(F)cc1 — outcome?
-1

Assay result, entry CC(CCc1ccccc1)NC(=O)c1ccccc1C(=O)O (stereo not drawn) — outcome?
-1

Assay result, entry O=c1c(-c2ccc(Cl)cc2)[n+]([O-])c2ccccc2n1O — outcome?
1

Assay result, entry Fc1ccc(COc2ccc(Br)cc2CNCc2ccncc2)cc1 — outcome?
-1

Assay result, entry Oc1c(Cl)cc(Cl)cc1/C=N/c1nccs1 — outcome?
-1

Assay result, entry Cc1ccc(C(=O)C2=C(O)C(=O)N(CCCN3CCOCC3)C23C(=O)N(C)c2ccccc23)o1 (stereo not drawn) — outcome?
-1

Assay result, entry CC1CCCCN1S(=O)(=O)c1ccc(S(=O)(=O)N(CC(=O)Nc2ccccc2)Cc2cccs2)cc1 (stereo not drawn) — outcome?
-1

Assay result, entry CCCCOc1ccc(C(=O)Oc2ccc(C)nc2)cc1 — outcome?
-1

Assay result, entry CC(C)(C)c1ccc(-n2nc(C#N)c(Cl)cc2=O)cc1 — outcome?
-1

Assay result, entry S=c1[nH]c(-c2ccccc2)cs1 — outcome?
1

Assay result, entry O=C1N(Cc2ccc(F)cc2)CCN1c1ccc(F)cc1 — outcome?
1

---

# Target of assay: Short transient receptor potential channel 6 (Mus musculus) (UniProt Q61143)
# Sequence (Q61143 whole entry, looked up): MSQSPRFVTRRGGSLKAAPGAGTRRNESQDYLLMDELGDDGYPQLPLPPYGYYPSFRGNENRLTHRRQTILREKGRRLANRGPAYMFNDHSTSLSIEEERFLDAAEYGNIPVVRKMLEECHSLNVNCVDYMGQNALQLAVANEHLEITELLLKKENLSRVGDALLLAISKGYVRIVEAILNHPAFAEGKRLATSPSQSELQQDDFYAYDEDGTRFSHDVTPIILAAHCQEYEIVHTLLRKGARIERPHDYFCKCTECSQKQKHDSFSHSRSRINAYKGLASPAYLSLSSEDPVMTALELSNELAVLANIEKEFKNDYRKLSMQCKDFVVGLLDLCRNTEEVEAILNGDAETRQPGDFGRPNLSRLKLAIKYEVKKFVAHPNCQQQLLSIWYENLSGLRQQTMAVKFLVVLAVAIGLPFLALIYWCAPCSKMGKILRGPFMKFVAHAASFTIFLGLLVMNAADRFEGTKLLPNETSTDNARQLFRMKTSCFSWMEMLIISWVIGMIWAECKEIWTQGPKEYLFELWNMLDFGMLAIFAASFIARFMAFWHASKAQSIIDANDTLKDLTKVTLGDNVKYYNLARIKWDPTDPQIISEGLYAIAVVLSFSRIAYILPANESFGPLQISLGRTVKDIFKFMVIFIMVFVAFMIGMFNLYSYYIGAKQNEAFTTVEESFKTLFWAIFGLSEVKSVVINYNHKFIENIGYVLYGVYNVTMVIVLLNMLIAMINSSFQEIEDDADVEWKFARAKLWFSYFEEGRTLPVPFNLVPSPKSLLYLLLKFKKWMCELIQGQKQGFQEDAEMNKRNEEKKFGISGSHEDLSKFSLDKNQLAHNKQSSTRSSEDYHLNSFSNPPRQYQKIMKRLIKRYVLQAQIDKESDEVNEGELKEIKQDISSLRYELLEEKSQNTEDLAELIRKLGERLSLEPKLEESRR
# Experiment summary: TRPC6 potentiation by TRPC4 potentiator hits, confirmation, selectivity assay for TRPC4 potentiator project, HEK293 cells, membrane potential dye, duplicate (AID 434952)
# Study conditions: HEK293 TRPC6, membrane potential dye fluorescence, at 10 µM, maximal acetylcholine added after compound
Activity calls are given as the source filed them.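 How the source made its calls: active means compound raising the membrane signal above positive-control mean plus 3 SD in both repeats, and a primary screen hit; inactive means the rest.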
Valid outcomes are listed here; reply with one: T for active, F for inactive

Compound	Answer label
CN(C)CCCN(C(=O)c1ccc(S(=O)(=O)N(C)Cc2ccccc2)cc1)c1nc2cc3c(cc2s1)OCO3	F
CCOc1ccccc1CN1CCNC(=O)C1CC(=O)N(C)CCc1ccccn1 (stereo unspecified)	F
O=c1c2cc(Br)ccc2nc(-c2ccc(Cl)cc2)n1O	F

Assay result, entry COc1cc(OC)cc(C(=O)NC(=S)NNC(=O)[C@H]2C[C@@H]2c2ccccc2)c1 — outcome?
F

Assay result, entry Cc1ccc(C(=O)NC(=S)NNC(=O)c2ccccc2)cc1 — outcome?
F

Assay result, entry CCOC(=O)C1(CCc2ccccc2)CCN(Cc2ccc(O)cc2)CC1 — outcome?
F

Assay result, entry O=C1/C(=C\c2cc(Cl)c(O)c(Cl)c2)SC(=S)N1Cc1ccccc1 — outcome?
T

Assay result, entry Cc1cc(NC(=O)c2cnn3cccnc23)nn1CC(=O)Nc1cccnc1 — outcome?
F

Assay result, entry COc1ccccc1C(=O)NNC(=S)NC(=O)c1sc2ccccc2c1Cl — outcome?
F

Assay result, entry CN(C)C(CNC(=O)c1ccc2c(c1)S(=O)(=O)c1ccccc1C2=O)c1ccco1 (stereo unspecified) — outcome?
F

Assay result, entry OCCNCCSc1ccc(Cl)cc1 — outcome?
F

The values you see were collected from PubChem BioAssay.
